target: Zcchc11 enzyme (Homo sapiens); construct: made in house; host or cells: HEK293 cells (Zcchc11); E. coli Rosetta II (LIN28A); assay: TUTase assay (Zcchc11 assay, Lin28a-dependent polyuridylation of pre-let-7); assay type: biochemical; settings: LIN28A 10 nM, Zcchc11 0.2 nM, 5′-fluorescein pre-let-7 miRNA 2 nM, UTP 5 uM, room temperature, 30 minutes pre-incubation; read-out: Potency Lin28a-dep Z11 IC50
pIC50: −log10 of the molar value.
measuredProperty: pIC50

[[record]]
smilesstring = "CN(C)C1CN(c2ccc(-n3cc(C(=O)O)c(=O)c4cc(F)c(N5C[C@@H](c6cccnc6)C[C@@H]5COc5ncccc5Cl)cc43)cn2)C1"
assayresult = "≥ 6.00"

[[record]]
smilesstring = "CN(C)C1CN(c2ccc(-n3cc(C(=O)O)c(=O)c4cc(Cl)c(N5CC(C)(C)C[C@@H]5COc5ncccc5Cl)cc43)cn2)C1"
assayresult = "≥ 6.00"

[[record]]
smilesstring = "NC1CN(c2ccc(-n3cc(C(=O)O)c(=O)c4cc(Cl)c(N5CCC[C@@H]5COc5ncccc5Cl)cc43)cn2)C1"
assayresult = "≥ 6.00"


* * *

Attribute: IC50
biological target: Zcchc11 enzyme (Homo sapiens); construct: made in house; host or cells: HEK293 cells (Zcchc11); E. coli Rosetta II (LIN28A); assay: TUTase assay (Zcchc11 assay, Lin28a-dependent polyuridylation of pre-let-7); assay type: biochemical; conditions: Lin28a-dependent Zcchc11 (Z11) TUTase assay; read-out: Potency Lin28a-dep Z11 IC50
measuredProperty: IC50

[[record]]
compound = "Cn1ccnc1-n1cc(C(=O)O)c(=O)c2cc(Cl)c(N3CCC[C@@H]3COc3ncccc3Cl)cc21 [Example 568]"
assaytarget = "Zcchc11 enzyme (Homo sapiens)"
measuredproperty = "IC50"
assayresult = "≤ 1000 nM"

[[record]]
compound = "COc1cccc(-n2cc(C(=O)O)c(=O)c3cc(F)c(N4CCC[C@@H]4COc4ccccn4)cc32)c1 [Example 399]"
assaytarget = "Zcchc11 enzyme (Homo sapiens)"
measuredproperty = "IC50"
assayresult = "≤ 1000 nM"

[[record]]
compound = "O=C(O)c1cn(-c2cc3nc[nH]c3cn2)c2cc(N3CCC[C@@H]3COc3ncccc3Cl)c(Cl)cc2c1=O [Example 604]"
assaytarget = "Zcchc11 enzyme (Homo sapiens)"
measuredproperty = "IC50"
assayresult = "≤ 1000 nM"

[[record]]
compound = "O=C(O)c1cn(-c2ccc(O)cc2Cl)c2cc(N3CCC[C@@H]3COc3ccccn3)c(F)cc2c1=O [Example 384]"
assaytarget = "Zcchc11 enzyme (Homo sapiens)"
measuredproperty = "IC50"
assayresult = "1000 to 10000 nM"

[[record]]
compound = "CN(C)C1CN(c2ccc(-n3cc(C(=O)O)c(=O)c4cc(Cl)c(N5C6CC6C[C@@H]5COc5ncccc5Cl)cc43)cn2)C1 (some centres unmarked) [Example 628]"
assaytarget = "Zcchc11 enzyme (Homo sapiens)"
measuredproperty = "IC50"
assayresult = "≤ 1000 nM"

[[record]]
compound = "CNc1ccc(-n2cc(C(=O)O)c(=O)c3cc(Cl)c(N4CCC[C@@H]4COc4ncccc4Cl)cc32)cn1 [Example 417]"
assaytarget = "Zcchc11 enzyme (Homo sapiens)"
measuredproperty = "IC50"
assayresult = "≤ 1000 nM"

[[record]]
compound = "O=C(O)c1cn(-c2c[nH]cn2)c2cc(N3CCC[C@@H]3COc3ncccc3Cl)c(Cl)cc2c1=O [Example 565]"
assaytarget = "Zcchc11 enzyme (Homo sapiens)"
measuredproperty = "IC50"
assayresult = "≤ 1000 nM"

[[record]]
compound = "O=C(O)c1cn(-c2cc(F)ccc2Cl)c2cc(N3CCC[C@@H]3COc3ccccn3)c(F)cc2c1=O [Example 386]"
assaytarget = "Zcchc11 enzyme (Homo sapiens)"
measuredproperty = "IC50"
assayresult = "1000 to 10000 nM"

[[record]]
compound = "COc1cc2c(=O)c(C(=O)O)cn(-c3cnccn3)c2cc1N1CCC[C@@H]1COc1ncccc1Cl [Example 512]"
assaytarget = "Zcchc11 enzyme (Homo sapiens)"
measuredproperty = "IC50"
assayresult = "> 50000 nM"

[[record]]
compound = "O=C(O)c1cn(-c2ccc(O)c(Cl)c2)c2cc(N3CCC[C@@H]3COc3ccccn3)c(F)cc2c1=O [Example 408]"
assaytarget = "Zcchc11 enzyme (Homo sapiens)"
measuredproperty = "IC50"
assayresult = "≤ 1000 nM"

[[record]]
compound = "O=C(O)c1cn(-c2cnccn2)c2cc(N3CCC[C@@H]3COc3ncccc3Cl)c(Br)cc2c1=O [Example 511]"
assaytarget = "Zcchc11 enzyme (Homo sapiens)"
measuredproperty = "IC50"
assayresult = "≤ 1000 nM"

[[record]]
compound = "O=C(O)c1cn(-c2ccc(F)cn2)c2cc(N3CCC[C@@H]3COc3ccccn3)c(F)cc2c1=O [Example 380]"
assaytarget = "Zcchc11 enzyme (Homo sapiens)"
measuredproperty = "IC50"
assayresult = "1000 to 10000 nM"

[[record]]
compound = "CN(C)C1CN(c2ncc(-n3cc(C(=O)O)c(=O)c4cc(Cl)c(N5CCC[C@@]5(C)COc5ncccc5Cl)nc43)cn2)C1 [Example 623]"
assaytarget = "Zcchc11 enzyme (Homo sapiens)"
measuredproperty = "IC50"
assayresult = "≤ 1000 nM"

[[record]]
compound = "Nc1ccc(-n2cc(C(=O)O)c(=O)c3cc(Cl)c(N4CCC[C@@H]4COc4nc(OC5CC5)ccc4Cl)cc32)cn1 [Example 647]"
assaytarget = "Zcchc11 enzyme (Homo sapiens)"
measuredproperty = "IC50"
assayresult = "≤ 1000 nM"


* * *

target: Zcchc11 enzyme (Homo sapiens); construct: made in house; host or cells: HEK293 cells (Zcchc11); E. coli Rosetta II (LIN28A); assay: TUTase assay (Zcchc11 assay, Lin28a-dependent polyuridylation of pre-let-7); format: biochemical; details: Lin28a-dependent Zcchc11 (Z11) TUTase assay; read-out: Potency Lin28a-dep Z11 IC50
Attribute: IC50
measuredProperty: IC50

[[record]]
smilesstring = "O=C(O)c1cn(-c2cccc(F)c2)c2cc(N3CCC[C@@H]3COc3ccccn3)c(F)cc2c1=O"
assayresult = "1000 to 10000 nM"

[[record]]
smilesstring = "COCCNc1ccc(-n2cc(C(=O)O)c(=O)c3cc(C#N)c(N4CCC[C@@H]4COc4ncccc4Cl)cc32)cn1"
assayresult = "≤ 1000 nM"

[[record]]
smilesstring = "O=C(O)c1cn(-c2ccc(N3CCCC3=O)nc2)c2nc(N3CCC[C@@H]3COc3ncccc3Cl)c(Cl)cc2c1=O"
assayresult = "≤ 1000 nM"

[[record]]
smilesstring = "O=C(O)c1cn(-c2ccc(N3CC(N4CCC4)C3)nc2)c2cc(N3CCC[C@@H]3COc3ncccc3Cl)c(Cl)cc2c1=O"
assayresult = "≤ 1000 nM"


* * *

target: Zcchc11 enzyme (Homo sapiens); construct: made in house; host or cells: HEK293 cells (Zcchc11); E. coli Rosetta II (LIN28A); test: TUTase assay (Zcchc11 assay, Lin28a-dependent polyuridylation of pre-let-7); format: biochemical; conditions: Lin28a-dependent Zcchc11 (Z11) TUTase activity; read-out: Potency Lin28a-dep Z11 IC50
measuredProperty: IC50

[[record]]
molecule = "COc1ccc(Cl)c(OC[C@H]2C[C@@H](c3cccnc3)CN2c2cc3c(cc2Cl)c(=O)c(C(=O)O)cn3-c2ccc(N3CC(N(C)C)C3)nc2)n1 [Compound 345]"
assayresult = "≤ 1 µM"

[[record]]
molecule = "CN(C)C1CN(c2cnc(-n3cc(C(=O)O)c(=O)c4cc(C#N)c(N5CCC[C@@H]5COc5ncccc5Cl)nc43)cn2)C1 [Compound 280]"
assayresult = "≤ 1 µM"

[[record]]
molecule = "COc1ccc(Cl)c(OC[C@H]2C[C@@H]3C[C@@H]3N2c2cc3c(cc2F)c(=O)c(C(=O)O)cn3-c2ccc(N3CC(N(C)C)C3)nc2)n1 [Compound 201]"
assayresult = "≤ 1 µM"

[[record]]
molecule = "O=C(O)c1cn(-c2ccc(O)cc2F)c2cc(N3CCC[C@@H]3COc3ccccc3)c(F)cc2c1=O [Compound 90]"
assayresult = "> 50 µM"

[[record]]
molecule = "CN(C)C1CN(c2ccc(-n3cc(C(=O)O)c(=O)c4cc(Cl)c(N5CC(OC6CC6)C[C@@H]5COc5ncccc5Cl)cc43)cn2)C1 (stereo partly drawn) [Compound 275]"
assayresult = "≤ 1 µM"

[[record]]
molecule = "O=C(O)c1cn(-c2cnc(OCc3ccccc3)cn2)c2cc(N3CCC[C@@H]3COc3ncccc3Cl)c(Cl)cc2c1=O (racemic) [Compound 263]"
assayresult = "≤ 1 µM"


* * *

molecular target: Zcchc11 enzyme (Homo sapiens, UniProt Q5TAX3); construct: made in house; host or cells: HEK293 cells (Zcchc11); E. coli Rosetta II (LIN28A); assay: TUTase assay (Zcchc11 assay, Lin28a-dependent polyuridylation of pre-let-7); assay type: biochemical; conditions: LIN28A 10 nM, Zcchc11 0.2 nM, 5′-fluorescein pre-let-7 miRNA 2 nM, UTP 5 uM, room temperature, 30 minutes pre-incubation; read-out: Potency Lin28a-dep Z11 IC50
Sequence (Q5TAX3 212-1420): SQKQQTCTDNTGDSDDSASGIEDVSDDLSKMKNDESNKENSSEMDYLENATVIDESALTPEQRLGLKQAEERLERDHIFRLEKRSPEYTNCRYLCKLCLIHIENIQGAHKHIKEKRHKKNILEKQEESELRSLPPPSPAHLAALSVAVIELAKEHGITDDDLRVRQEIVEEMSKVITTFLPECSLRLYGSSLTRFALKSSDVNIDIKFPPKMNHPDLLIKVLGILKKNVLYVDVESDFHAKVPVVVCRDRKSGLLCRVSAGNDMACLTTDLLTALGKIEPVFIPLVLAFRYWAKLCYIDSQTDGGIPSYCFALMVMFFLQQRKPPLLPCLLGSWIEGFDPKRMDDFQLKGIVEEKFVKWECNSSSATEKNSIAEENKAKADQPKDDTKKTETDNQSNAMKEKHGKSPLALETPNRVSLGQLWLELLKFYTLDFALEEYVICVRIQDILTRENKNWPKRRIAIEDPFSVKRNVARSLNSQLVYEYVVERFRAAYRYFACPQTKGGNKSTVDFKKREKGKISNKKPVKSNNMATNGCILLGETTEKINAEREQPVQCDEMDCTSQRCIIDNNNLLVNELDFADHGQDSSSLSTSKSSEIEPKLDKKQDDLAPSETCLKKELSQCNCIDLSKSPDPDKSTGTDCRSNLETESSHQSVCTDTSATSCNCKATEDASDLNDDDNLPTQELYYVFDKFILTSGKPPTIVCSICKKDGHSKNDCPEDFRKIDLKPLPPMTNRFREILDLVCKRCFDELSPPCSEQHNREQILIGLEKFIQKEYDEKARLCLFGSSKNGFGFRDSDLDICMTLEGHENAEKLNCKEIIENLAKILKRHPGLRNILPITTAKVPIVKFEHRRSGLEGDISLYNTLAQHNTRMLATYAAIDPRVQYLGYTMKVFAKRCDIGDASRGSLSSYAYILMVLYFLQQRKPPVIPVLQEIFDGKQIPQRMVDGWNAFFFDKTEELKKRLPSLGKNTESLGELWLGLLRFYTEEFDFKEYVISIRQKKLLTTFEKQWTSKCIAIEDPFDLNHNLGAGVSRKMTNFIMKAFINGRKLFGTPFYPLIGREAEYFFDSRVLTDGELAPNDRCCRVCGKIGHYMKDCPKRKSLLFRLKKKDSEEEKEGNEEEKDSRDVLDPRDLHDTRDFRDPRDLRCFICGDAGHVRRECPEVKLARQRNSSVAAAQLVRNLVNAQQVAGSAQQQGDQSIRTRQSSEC
measuredProperty: IC50

[[record]]
molecule = "Cc1ccnn(C[C@H]2CCCN2c2cc3c(cc2F)c(=O)c(C(=O)O)cn3-c2ccc(O)cc2)c1=O [Example 23]"
measuredproperty = "IC50"
assayresult = "≤ 1 µM"

[[record]]
molecule = "CN(C)C1CN(c2ccc(-n3cc(C(=O)O)c(=O)c4cc(Cl)c(N5CCC6CC65COc5ncccc5Cl)cc43)cn2)C1 (stereo not shown) [Example 48]"
measuredproperty = "IC50"
assayresult = "≤ 1 µM"

[[record]]
molecule = "O=C(O)c1cn(-c2cc3n(n2)CCOC3)c2cc(N3CCC[C@@H]3COc3ncccc3Cl)c(Cl)cc2c1=O [Example 76]"
measuredproperty = "IC50"
assayresult = "≤ 1 µM"

[[record]]
molecule = "CN(C)C1CN(c2ccc(-n3cc(C(=O)O)c(=O)c4cc(C#N)c(N5C6CCC5(COc5ncccc5F)CC6)cc43)cn2)C1 [Example 42]"
measuredproperty = "IC50"
assayresult = "≤ 1 µM"

[[record]]
molecule = "CC(Oc1ncccc1Cl)[C@H]1CCCN1c1cc2c(cc1Cl)c(=O)c(C(=O)O)cn2-c1ccccc1 (stereo partly shown) [Example 8]"
measuredproperty = "IC50"
assayresult = "1 to 10 µM"

[[record]]
molecule = "COCCN1CCC(n2cc(C(=O)O)c(=O)c3cc(Cl)c(N4CCC[C@@H]4COc4ncccc4Cl)cc32)C1 (stereo partly shown) [Example 38]"
measuredproperty = "IC50"
assayresult = "1 to 10 µM"

[[record]]
molecule = "COc1ccc(Cl)c(OC[C@H]2CC3CC3N2c2cc3c(cc2F)c(=O)c(C(=O)O)cn3-c2ccnc(N)c2)n1 (stereo partly shown) [Example 66]"
measuredproperty = "IC50"
assayresult = "≤ 1 µM"

